# Test system: PRMT1 (protein arginine N-methyltransferase 1)
# TEST SUMMARY: PRMT1 binders on small-molecule microarrays, primary screen, biochemical, small-molecule microarray, 635 nm fluorescence (AID 1088)
# DETAILS: small-molecule microarray binding, higher = more signal
REPORTED METRIC: composite z-score
Please state the value as a number alone, without comment.

Field: example entries. Status: answers known.
Cc1ccc(S[C@]2(C(=O)NCC(C)C)CC(=O)N(Cc3ccccc3)[C@@H]2c2ccc(CO)cc2I)cc1: 1.3
COCCCNC(=O)[C@@]1(c2ccc([N+](=O)[O-])cc2)CC(=O)N(CC23CC4CC(CC(C4)C2)C3)[C@@H]1c1ccc(CO)cc1: 1.54

Pending compound:
(Q) What does the data say about its composite z-score? Entry: C=C(COC)/C(=C/C[C@H](OC(=O)c1ccncc1)c1cccc(OCCO)c1)c1cc(C(=O)OC)ccc1OC
(A) 1.48
